Hi there, I'd appreciate the recorded melting point for every entry that follows.

Would you please look over these solved cases?
COCc1c(C(=O)O)ncc2[nH]c3cccc(CN4CCOCC4)c3c12	253 to 255 °C
CCn1ncc2c1ncc1c(OCCC(C)C)nc3ncnn3c12	140 to 142 °C
Cc1nc2sccn2c(=O)c1CCN1CCC(=C2c3ccccc3CCn3ccnc32)CC1	182 °C

// input: 2 compounds below; output: melting point for each
1. O=C(Nc1cc2[nH]c(=O)c(=O)[nH]c2cc1[N+](=O)[O-])C(F)(F)F
2. CCOC(=O)c1ccc(OCC)c(-c2ncc(C(=O)OCC)c(=O)[nH]2)c1

Data returned:
1. > 320 °C
2. 180 to 182 °C

---

quantity_kind: melting point

Would you please look over these solved cases?
O=C(N[C@@H](CO)C(=O)NCCCOC1CCCCC1)c1ccc(C(=O)c2cccnc2)cc1	57 to 62 °C
COc1ccc2oc(C(O)Cc3ccccc3)cc2c1 (stereo unspecified)	69 to 70 °C
CC(C)(C)c1ccc(CCC(O)CCC2CCCCC2)cc1NC(=O)CC1c2ccccc2Oc2ccccc21 (stereo unspecified)	136 to 137 °C
Cc1cnc(C2=NC(C)(C(C)C)C(=O)N2)c(C(O)(c2cccs2)c2cccs2)c1 (stereo unspecified)	190 to 191 °C

// input: 2 compounds below; output: melting point for each
1. Sc1nccn1Cc1cccs1
2. COCCOc1cc2ncnc(Nc3ccc(C)c(OC(C)=O)c3)c2cc1OC

Data returned:
1: 130 to 131 °C; 2: 180 to 183 °C

---

quantity_kind: melting point

Would you please look over these solved cases?
FC(F)(F)c1cccc(CSc2nnc(-c3ccc4ncsc4c3)o2)c1	112 to 113 °C
CN1C(=O)c2ccccc2OC1C(Cl)(Cl)Cl (centres undefined)	82 to 84 °C
O=C(NC(=O)c1c(Cl)cccc1Cl)Nc1ccc(-c2ccc(Cl)cc2)nc1	225 to 229 °C
COC(=O)C1(C(=O)OC)CCn2c(C(=O)c3ccccc3)cc(Br)c21	109 to 110 °C
COCOc1cc(C=O)ccc1OCc1nc(-c2ccco2)oc1C	102 to 103 °C

// input: 4 compounds below; output: melting point for each
1. COc1nc2cc(Cl)c(Cl)cc2nc1S(C)(=O)=O
2. O=[N+]([O-])c1cc(I)ccc1Nc1cccc(-c2ccccn2)c1
3. CCCCCCCCCCOc1cc(N=Nc2ccccc2)ccc1OCC1CC1
4. CCOC(=O)C(N)c1c[nH]c2c(CC)cccc12 (centres undefined)

Data returned:
1: 216 to 219 °C; 2: 195 to 196 °C; 3: 58 to 60 °C; 4: 120 to 122 °C

---

Hi there, I'd appreciate the recorded melting point for every entry that follows.

Nc1noc(C(F)(F)F)c1-c1ccccc1	91.5 to 92 °C

// input: 2 compounds below; output: melting point for each
1. O=C1Cc2c(cccc2NC(=O)c2cccn(-c3ccc(F)cc3)c2=O)N1
2. COC(=O)c1ccc(OCCCCl)cc1

Data returned:
293 to 295 °C
56.5 to 59 °C

// input: 3 compounds below; output: melting point for each
1. CCOC(=O)C=Cc1ccc(CCc2nc(-c3ccccc3)oc2C)cc1
2. O=C(Nc1ccncc1)c1ccc(-n2nc(C(F)(F)F)cc2C(F)(F)F)cc1
3. CCCOc1nc2ccc(Cl)cc2c(=O)n1CCC

Data returned:
73 to 74 °C
234 to 235 °C
64 to 66 °C

// input: 5 compounds below; output: melting point for each
1. CCc1cc(C(N)=O)nn1C
2. CCC(C)c1ccc(N(Cc2ccccc2)C(=N)N)cc1 (configuration not stated)
3. CC(=NNC(=O)C1CCC1)c1ccncc1
4. COCCO[C@@H]1c2ccc3c(nc(C)n3C)c2O[C@H](c2ccccc2)[C@H]1OC(=O)CN(C)C
5. CC1CCN2C(=O)c3ccccc3NC(=O)C12 (configuration not stated)

Data returned:
1: 170 to 172 °C; 2: 65 to 67 °C; 3: 139 °C; 4: 175 °C; 5: 117 to 118 °C

// input: 8 compounds below; output: melting point for each
1. COC(=O)C(=CN(C)C)N(C)c1nc(-c2ccc(Br)cc2)cs1
2. COC(=O)Nc1ccc(OC(=O)OC)cc1I
3. Cc1nc(=O)c(C)c(NCCc2cccn2C)[nH]1
4. Clc1ccc(-c2cn3cccc4c3c2CCC4)cc1
5. CC(CN1CCN(CCc2ccc(C(=O)O)cc2)CC1)Oc1ccc(C(=O)O)cc1 (configuration not stated)
6. CCC1(C)OC(c2ccc(S(N)(=O)=O)cc2)=C(c2ccco2)C1=O (configuration not stated)
7. COC(=O)c1ccc(-n2cccn2)cc1
8. COc1ccc(Cl)cc1-n1cc[nH]c1=O

Data returned:
["184 to 185 °C", "106 °C", "246 to 247 °C", "131 °C", "270 to 271 °C", "154 to 155 °C", "107 to 109 °C", "133 to 134 °C"]

// input: 3 compounds below; output: melting point for each
1. C/C(=C\C(=O)NC1CC1)c1cccc(F)c1
2. COc1ccc(-c2ccc(-c3nc(N)nc(N)n3)cc2)cc1
3. CC(=O)Nc1ccc(C[C@H](NC(=O)N(CCOC(C)=O)CCc2ccccc2)C(=O)NCCN(C)C)cc1

Data returned:
119 °C
> 260 °C
87 to 100 °C

// input: 2 compounds below; output: melting point for each
1. CNc1nc2ccccc2n2cnnc12
2. Cc1cc2c(c(C(=O)O)c1)OCC2

Data returned:
> 300 °C
177 to 179 °C

// input: 3 compounds below; output: melting point for each
1. O=c1c2c[nH]c3c(c-2nn1-c1ccc(Cl)cc1)CC(c1ccccc1)CC3 (configuration not stated)
2. COc1nnc(SCC2=C(C(=O)O)N3C(=O)C(NC(=O)Cc4csc(=O)s4)C3SC2)s1 (configuration not stated)
3. O=C1NCCC[C@@H]1NS(=O)(=O)c1ccccc1F

Data returned:
333 to 335 °C
208 °C
180 to 183 °C

---

Hi there, I'd appreciate the recorded melting point for every entry that follows.

Would you please look over these solved cases?
O=C(O)C1CCCc2c(OCc3ccccc3)cccc21 (stereo not given)	145 to 146 °C
CC(C)(C)Cc1c(CC(C)(C)C(=O)O)n(Cc2ccc(Cl)cc2)c2ccc(OCc3ccc4ccccc4n3)cc12	172 °C
CSc1ccc(C(=O)Nc2ccccc2)cc1[N+](=O)[O-]	219 to 222 °C
Cc1nc(NC(=O)n2ccnc2)sc1-c1ccnc(CC2CC2)n1	240 to 243 °C

Switching to the query record.
Data request: Param item = O=C(SCC(Cc1ccccc1)C(=O)O)c1ccccc1 (stereo not given) ; retrieve measured melting point.
Data returned: 99 to 100 °C

---

quantity_kind: melting point

Would you please look over these solved cases?
Cc1ccc(S(=O)(=O)OCC2Cc3c(C)c(Cl)cc(C(C)C)c3O2)cc1 (stereo not given)	103 to 105 °C
Cn1cc(-c2ccccc2)c(=O)c(-c2ccc(Cl)cc2)c1	142 °C
COC(=O)/C=C/c1cccc(Br)c1	53 to 55 °C
CC(C)(c1cc(F)ccc1O)c1cc(Cl)ccc1O	125 °C

// input: 4 compounds below; output: melting point for each
1. N#Cc1ccc(NC(=O)NC(=O)c2ccccc2F)c(Cl)c1Cl
2. Cc1ccc(C(C)C)n1N
3. CCCC1=C(C(=O)OCC)C(c2ccccc2OCc2ccccc2)c2c[nH]nc2N1 (stereo not given)
4. CCCCc1nc2cccc(C(=O)OC)c2n1Cc1ccc2nc(-c3ccccc3-c3nnn[nH]3)n(C)c(=O)c2c1

Data returned:
["298 to 300 °C", "21 to 24 °C", "128 °C", "240 to 242 °C"]

// input: 2 compounds below; output: melting point for each
1. CC(C)(C)OC(=O)N1C(=O)[C@H](O)[C@@H]1CC1CCCCC1
2. COc1ccc(-c2cnc(N3Cc4c([nH]c5ccccc5c4=O)C3c3ccc4c(c3)OCO4)nc2)cc1 (stereo not given)

Data returned:
1: 105 to 106 °C; 2: 325 to 327 °C

---

Hi there, I'd appreciate the recorded melting point for every entry that follows.

Would you please look over these solved cases?
CC(=O)OCS(=O)(=O)c1c(F)cc(-c2c(-c3ccccc3)noc2C)cc1F	165 to 166 °C
CNC(=O)C1Cc2c(n(C)c3ccc(OC)cc23)C1 (configuration not stated)	164 to 165 °C
CC(C)OC(=O)C=CC1C(C(=O)O)C1(C)C (configuration not stated)	98 °C
CCCCCCCCCCCCCCCCOCC(CO)OCCCCCCCCCCCCCC (configuration not stated)	42 to 43 °C
CC(O)C1CCC(CNC(=O)OCc2ccccc2)CC1 (configuration not stated)	83 to 84 °C
Nc1ncc2c(n1)-c1cccnc1CC2	220 to 226 °C
O=C(Nc1ccc2ccc(Cl)nc2n1)C1=CCC=CC1	210 °C
Cc1cccc2cc(CN(Cc3cc(C(F)(F)F)cc(C(F)(F)F)c3)c3ncc(N4CCOCC4)cn3)c(N(CC3CC3)CC3CC3)nc12	123 to 124 °C

// input: 7 molecules below; output: melting point for each
1. COc1ccc2c(c1)cc(C(=O)O)n2C(C)=O
2. CCCCOc1c(CNC(=O)OC(C)(C)C)n(CC2CC2)c(=O)c2ccc(Br)cc12
3. N=C(Nc1ccccc1)Nc1nc(-c2ccccc2)cs1
4. CC(=O)N[C@@H](C)COC1CCN(c2nc3cc(OCC4CC4)ccc3s2)CC1
5. CCc1cc2c(cc1F)c(C#N)c(-c1ccc(S(=O)(=O)N[C@@H](C)C(F)(F)F)cn1)n2-c1ncccn1
6. CC[C@H](C)[C@@H](CO)NC(=O)[C@H](Cc1c[nH]cn1)NC(=O)[C@H](Cc1cccc2ccccc12)NC(=O)OCc1ccccc1
7. COC(=O)CCC1=C(N)CCC1=O

Data returned:
1. 173 to 175 °C
2. 118 to 119 °C
3. 179 to 180 °C
4. 115 to 116 °C
5. 195 to 198 °C
6. 197 to 199 °C
7. 223 to 224 °C

// input: 6 molecules below; output: melting point for each
1. NS(=O)(=O)OCCOc1cccc(-n2ccnc2)c1
2. Nc1c2c(nc3ccc(F)cc13)CCCC2
3. O=C1c2nccc(-c3ccccc3NC(=O)C(F)(F)F)c2C(=O)c2c([N+](=O)[O-])ccnc21
4. CCOC(C)O[C@H]1C(=O)N(C(=O)OC(C)(C)C)[C@H]1c1ccccc1 (some centres not stated)
5. COc1ccc(C(=O)NCCCCCCCCCCNC(=O)c2ccc(OC)cc2)cc1
6. O=C(O)C(CCCCCCCCCCCC(C(=O)O)C1CC1)C1CC1 (configuration not stated)

Data returned:
["149 to 150 °C", "229 to 230 °C", "158 °C", "90 to 91 °C", "168 to 170 °C", "115 to 118 °C"]

// input: 3 molecules below; output: melting point for each
1. COc1cc(Nc2ncc([N+](=O)[O-])c(-c3ccccc3)n2)cc(OC)c1OC
2. CC(C)(C)c1ccc(Cn2[nH]c(N)cc2=O)cc1
3. N=C(N)c1sccc1-c1ccc(CN2CCSC2)cc1

Data returned:
1: 103 to 105 °C; 2: 126 °C; 3: 162 to 164 °C
